Tested on: A/Hong Kong/2369/2009 (H1N1) oseltamivir resistant
assayRemarks: microbe, parasite or virus in culture
experimentalSetup: Influenza A virus, H1N1, MDCK, read-out: IC50, Visual Assay
pIC50: −log10 of the molar value.

compound	experimentalSystem	pIC50
Nc1ccn([C@@H]2O[C@H](CO)[C@@H](O)[C@H]2F)c(=O)n1	A/Hong Kong/2369/2009 (H1N1) oseltamivir resistant	5.68
Nc1ccn([C@@H]2O[C@H](CO)[C@@H](O)C2(F)F)c(=O)n1 [2’-deoxy-2’, 2’-difluorocytidine, reference compound]	A/Hong Kong/2369/2009 (H1N1) oseltamivir resistant	7.30
